Tested on: M14
test_details: NCI tumour cell line growth inhibition, 48 h
The source made the active and inactive calls. Cut-off read from the data, not from the text of the source: active = GI50 up to about 1.1 µM and inactive = higher.
property_measured: GI50

In [3]: df
Out[3]:
                         chemical_structure  property_measured  observed_measurement
0  C[Si](C)(OCCS(=O)(=O)O)OC(=C1S(=O)(=O)OCCOS1(=O)=O)c1cccc2ccccc12               GI50   > 100 µM (inactive)
1   NCCCCNCCCNC(=O)c1csc(-c2nc(CCN)sc2Cl)n1               GI50   > 100 µM (inactive)
2  Cc1cc(=O)nc(S(=O)(=O)NC(=O)Nc2cccc(Cl)c2)[nH]1               GI50   > 100 µM (inactive)

* * *

This section presents compounds with their documented GI50 values.
System: PC-3
test_details: NCI tumour cell line growth inhibition, 48 h
Calls of active or inactive are those of the source. Cut-off read from the data, not from the text of the source: active = GI50 up to about 1.1 µM and inactive = higher.

compound	measured_on	GI50
S=C1CC(c2ccccc2)Sc2ccccc2N1 (stereo not given)	PC-3	6.85 µM (inactive)
C(=C\c1ccccc1)/C=N/c1ccc2c(c1)Cc1ccccc1-2	PC-3	69 µM (inactive)
O=C(CCC(NC(=O)OCc1ccccc1)C(=O)OCc1ccccc1)Nc1ccc(OCc2ccccc2)cc1 (stereo not given)	PC-3	13.2 µM (inactive)
O=c1[nH]nc(Cc2ccccc2)n1Nc1ccccc1	PC-3	> 100 µM (inactive)
CC(C)(C)/C(O)=C\c1nc2cc(C(F)(F)F)ccc2[nH]c1=O	PC-3	> 100 µM (inactive)
Cc1cn([C@@H]2C[C@H]2CO)c(=O)[nH]c1=O	PC-3	> 100 µM (inactive)
CSc1nc(NC(C)C)c2c(n1)Sc1nc3ccccc3n1N=C2	PC-3	19.5 µM (inactive)
C[C@H](CO)C1=CC(C#C[Si](C)(C)C)N(C(=O)Oc2ccccc2)c2ccccc21 (stereo not given in full)	PC-3	10.2 µM (inactive)
Fc1ccc(F)c(/C=N/C23CC4CC(CC(C4)C2)C3)c1	PC-3	> 10 µM (inactive)
C[C@H](CCC1=NCCN1)[C@H]1CC[C@H]2[C@@H]3[C@H](O)C[C@@H]4C[C@H](O)CC[C@]4(C)[C@H]3CC[C@]12C	PC-3	8.85 µM (inactive)
O=C(OCc1ccccc1)N1c2cc([N+](=O)[O-])ccc2C(=O)N2CCC[C@H]2C1O (stereo not given in full)	PC-3	> 100 µM (inactive)
CCc1nn(S(=O)(=O)c2ccc(C)cc2)c2c1CS(=O)(=O)CC2	PC-3	> 100 µM (inactive)
CC(=O)NCCc1c(-c2[nH]c3ccccc3c2CCNC(C)=O)[nH]c2ccccc12	PC-3	> 100 µM (inactive)
CCOC(=O)CN1CC(C2=C(O)CN(CC(=O)OCC)C2=O)=CC1=O	PC-3	> 100 µM (inactive)
CSC1=N/C(=C\c2ccc(C)cc2)C(=O)N1CN1CCOCC1	PC-3	58.9 µM (inactive)
CCOC(=O)CCc1cccc2c1oc1c(CCNC(=O)OCC3c4ccccc4-c4ccccc43)cccc12	PC-3	35.2 µM (inactive)
COc1ccc(C(=O)C#Cc2cn(C3CC(O)C(CO)O3)c(=O)[nH]c2=O)cc1 (stereo not given)	PC-3	> 100 µM (inactive)
Nc1nc(OCC2CCCCC2)c2nc[nH]c2n1	PC-3	10.8 µM (inactive)
CC(=O)O[C@@H]1[C@H]2[C@@H](OC(=O)c3ccccc3)[C@@H](C)C[C@]2(O)[C@H](OC(C)=O)[C@@]2(C)[C@@H]3CC(C)(C)C(=O)[C@]3(OC(C)=O)C[C@@]12C	PC-3	17.7 µM (inactive)
COc1ccc(P2(=S)SP(=S)(c3ccc(Cl)cc3)S2)cc1 (stereo not given)	PC-3	> 100 µM (inactive)
